assay: Experiment 1: dexamethasone concentration in the retina after intravitreal, intrascleral or intrachoroidal gelatin implant (LC/MS/MS); type: in vivo, Japanese white rabbits; settings: Japanese white, rabbit, other: intrascleral implant, 3 μg
experimental endpoint: concentration at 24 h (ng/g)

{"input smiles": "C[C@@H]1C[C@H]2[C@@H]3CCC4=CC(=O)C=C[C@]4(C)[C@@]3(F)[C@@H](O)C[C@]2(C)[C@@]1(O)C(=O)CO", "experimental endpoint": "concentration at 24 h", "measurement": 3.3}

###

assay: Experiment 1: dexamethasone concentration in the retina after intravitreal, intrascleral or intrachoroidal gelatin implant (LC/MS/MS); type: in vivo, Japanese white rabbits; conditions: Japanese white, rabbit, other: intravitreal implant, 3 μg
experimental endpoint: concentration at 3 h (ng/g)

{"input smiles": "C[C@@H]1C[C@H]2[C@@H]3CCC4=CC(=O)C=C[C@]4(C)[C@@]3(F)[C@@H](O)C[C@]2(C)[C@@]1(O)C(=O)CO", "measurement": 3.6}

###

assay: Experiment 1: dexamethasone concentration in the retina after intravitreal, intrascleral or intrachoroidal gelatin implant (LC/MS/MS); format: in vivo, Japanese white rabbits; conditions: Japanese white, rabbit, other: intravitreal implant, 3 μg

{"input smiles": "C[C@@H]1C[C@H]2[C@@H]3CCC4=CC(=O)C=C[C@]4(C)[C@@]3(F)[C@@H](O)C[C@]2(C)[C@@]1(O)C(=O)CO", "concentration at 24 h / ng/g": 4.2}

###

experiment: Experiment 1: dexamethasone concentration in the retina after intravitreal, intrascleral or intrachoroidal gelatin implant (LC/MS/MS); assay type: in vivo, Japanese white rabbits; details: Japanese white, rabbit, other: intrascleral implant, 3 μg

{"compound": "C[C@@H]1C[C@H]2[C@@H]3CCC4=CC(=O)C=C[C@]4(C)[C@@]3(F)[C@@H](O)C[C@]2(C)[C@@]1(O)C(=O)CO [dexamethasone]", "unit spec": "ng/g", "concentration at 1 h": 122}

###

assay: Experiment 1: dexamethasone concentration in the retina after intravitreal, intrascleral or intrachoroidal gelatin implant (LC/MS/MS); format: in vivo, Japanese white rabbits; conditions: Japanese white, rabbit, other: intravitreal implant, 3 μg

{"input smiles": "C[C@@H]1C[C@H]2[C@@H]3CCC4=CC(=O)C=C[C@]4(C)[C@@]3(F)[C@@H](O)C[C@]2(C)[C@@]1(O)C(=O)CO", "concentration at 1 h [ng/g]": 13.5}

###

assay: Experiment 1: dexamethasone concentration in the retina after intravitreal, intrascleral or intrachoroidal gelatin implant (LC/MS/MS); assay type: in vivo, Japanese white rabbits; settings: Japanese white, rabbit, other: intrachoroidal implant, 3 μg
experimental endpoint: concentration at 3 h (ng/g)

{"input smiles": "C[C@@H]1C[C@H]2[C@@H]3CCC4=CC(=O)C=C[C@]4(C)[C@@]3(F)[C@@H](O)C[C@]2(C)[C@@]1(O)C(=O)CO", "unit spec": "ng/g", "measurement": 23.8}

###

Test: Experiment 2: dexamethasone concentration in the retina after DEX-PLA implant placed in the choroid near the optic disc (LC/MS/MS)
Format: in vivo, Japanese white rabbits
Details: Japanese white, rabbit, other: intrachoroidal implant near the optic disc, 3 μg
Description: Nine 3-month-old Japanese white rabbits (purchased from Japan SLC, Inc., weight: 2 to 2.5 kg) were used as subjects, and the implant was placed in one of the eyes of each rabbit. The implant was placed in the choroid using the method for placing an implant in the choroid according to the embodiments of the invention. Specifically, the conjunctiva was incised, and an injection needle having a size of 25G was inserted between the conjunctiva and the sclera. […]

{"compound": "C[C@@H]1C[C@H]2[C@@H]3CCC4=CC(=O)C=C[C@]4(C)[C@@]3(F)[C@@H](O)C[C@]2(C)[C@@]1(O)C(=O)CO [dexamethasone]", "concentration at 24 h [ng/g]": 159}
